Origin of measurements: PubChem BioAssay AID1986

A collection of molecules and their measured inhibition
measurement notes: inhibitors of HIV fusion peptide binding, primary screen, biochemical, uHTS, fluorescence dequenching (AID 1986)
conditions: cell-free peptide binding, 30 min, at 20 µM, active compounds read high
The campaign covered roughly 290,000 compounds. About 890 (0.31%) were called active. This is one part of a sample in which actives are shown more often than they occur.
attribute measured: inhibition (%)

| molecule | unit symbol | obs value |
| --- | --- | --- |
| COc1ccc(N=C2NC(=O)/C(=C\c3ccco3)S2)cc1 | % | 42 |
| O=C1NC(=S)S/C1=C/c1ccc(N2CCOCC2)o1 | % | 18.7 |
| Cc1ccc2c(c1)c(N=O)c(O)n2Cc1ccc(Cl)cc1 | % | -0.1 |
| COc1ccc(OC)c(CCNC(=O)c2ccc3c(c2)N(Cc2ccc(F)cc2)CCS3)c1 | % | -0.6 |
| COc1ccc(N2C(=O)c3cccc4c(N(C)CCO)ccc(c34)C2=O)cc1 | % | 150 |
| Cc1c(C(=O)O)c(=O)n(-c2ccccc2)n1-c1ccccc1 | % | 1.2 |
| Cc1ccc(S(=O)(=O)N(CC(=O)Nc2ccccc2C(=O)O)c2ccccc2)cc1 | % | 10.7 |
| CCCCOC(=O)c1ccc(N=Nc2c(C)c(C#N)c(O)[nH]c2=O)cc1 | % | 77.6 |
| O=C(O)CSc1cc(C(=O)c2ccccc2O)cn2c(=O)c3c(-c4ccccc4)csc3nc12 | % | 59.6 |
| Cc1ccc(Nc2nc(N)c([N+](=O)[O-])c(N3CCOCC3)n2)cc1 | % | -3.1 |
| COCC(C)n1c(SCC(=O)c2cc(C)n(C)c2C)nc2ccccc2c1=O (stereo not given) | % | 0.2 |
| O=c1[nH]nc(SCc2ccccc2Cl)n1-c1ccc2c(c1)OCCO2 | % | -1.4 |
| CCCn1c(=O)c2ccccc2n2c(SCN3C(=O)c4ccccc4C3=O)nnc12 | % | 0.3 |
| C=CCN(C(=O)CN1CCCCC1)c1nc(-c2ccccc2)cs1 | % | -1.5 |
| O=C1NC(=S)S/C1=C\c1cc2ccccc2nc1N1CCCCC1 | % | 63.6 |
| COc1ccc(C(=O)C2CCCN(C(=O)c3csc(C(C)=O)c3)C2)c(C)c1 (stereo not given) | % | 1.4 |
| COc1ccc(NC(=O)CSc2nnc(C)c3ccccc23)cc1 | % | 0.4 |
| O=S(=O)(c1ccccc1)N1CCC(Oc2ccc(-n3cnnn3)cc2)CC1 | % | 0.5 |
| CCOc1ccccc1C(=O)NC1CCN(Cc2ccccc2)CC1 | % | -0.3 |
| CC(C(=O)N1CCc2ccccc21)n1cccc1 (stereo not given) | % | -2.3 |

---

A collection of molecules and their measured inhibition
measurement notes: inhibitors of HIV fusion peptide binding, primary screen, biochemical, uHTS, fluorescence dequenching (AID 1986)
conditions: cell-free peptide binding, 30 min, at 20 µM, active compounds read high
About 890 (0.31%) of roughly 290,000 compounds were called active. The sample as a whole holds a higher share of actives than the screen did.
attribute measured: inhibition (%)

| molecule | attribute measured | obs value |
| --- | --- | --- |
| O=C(Nc1ccc(Cl)cc1)Nc1ccc2c(c1)OCO2 | inhibition | -0.2 |
| O=C(N/N=C/c1cccc([N+](=O)[O-])c1)c1ccc2nc[nH]c2c1 | inhibition | -2.3 |
| CC(=O)c1sc(NS(=O)(=O)c2ccc(C)cc2)nc1-c1ccccc1 | inhibition | 19.8 |
| CCOc1ccc(/C=C/C2=Cc3c(sc(NC(=O)CSc4n[nH]c(N)n4)c3C#N)C(C)(C)C2)cc1 | inhibition | 62.3 |
| Cc1ccc(C)c2[nH]c(=O)c(CN(Cc3nnnn3C3CCCCC3)CC3CCCO3)cc12 (stereo not given) | inhibition | -0.9 |

---

measurement notes: inhibitors of HIV fusion peptide binding, primary screen, biochemical, uHTS, fluorescence dequenching (AID 1986)
conditions: cell-free peptide binding, 30 min, at 20 µM, active compounds read high
Screen size: about 290,000 compounds; about 890 (0.31%) were called active. For the sample, actives were picked, then their nearest neighbours and some compounds at random.

| compound | inhibition (%) |
| --- | --- |
| COc1ccc(/C=c2\sc3nc(-c4ccccc4OC)nn3c2=O)c(OC)c1 | 11.2 |
| Cc1onc(-c2c(F)cccc2Cl)c1C(=O)OCC(=O)NC(N)=O | -0.8 |
| CC(C)c1ccc(N(CC(=O)NCc2ccc(F)cc2)C(=O)c2csnn2)cc1 | -1.1 |
| CCOc1ccc(C(Nc2cccnc2)c2cc(Cl)c3cccnc3c2O)cc1 (stereo not given) | 17.1 |
| Cc1[nH]n(-c2ncc(-c3ccccc3)s2)c(=O)c1C(c1ccc(Cl)cc1)C(C#N)C#N (stereo not given) | 70.8 |
| Cc1ccc(NC(=O)Cn2cnc3sc(C(=O)NCc4ccco4)c(C)c3c2=O)cc1Cl | -1.5 |
| O=C(/C=C/c1ccccc1)NCCSCc1ccccc1Cl | -2.6 |
| COc1ccc(CCNC(=O)Cc2cc(OC)c(OC)cc2Br)cc1OC | 1.9 |
| CC(=O)Sc1nc(-c2ccccc2)[nH]c1S(=O)(=O)c1ccc(C)cc1 | 60.7 |
| CN(C)c1nc(N)c([N+](=O)[O-])c(NCc2ccccc2)n1 | -1.3 |
| COc1cccc(-c2noc(CCCC(=O)Nc3ccc(C(N)=O)cc3)n2)c1 | 0.5 |
| CCOc1ccc(/C=c2\sc3nc(-c4ccco4)nn3c2=O)cc1OCC | 21.5 |
| CCOC(=O)C(=CNc1ccc(C(F)(F)F)cc1Cl)C(=O)OCC | 0.9 |
| COc1cccc(/C=c2\sc3nc(-c4cccs4)nn3c2=O)c1OC | 2.8 |
| COc1ccccc1/C=c1\sc2nc(-c3ccco3)nn2c1=O | 36.3 |
| CCOc1cc(/C=C2/C(=O)ON=C2C)ccc1O | 33.7 |
| O=C(NC1CC2CCCC(C1)N2Cc1ccco1)NC12CC3CC(CC(C3)C1)C2 (stereo not given) | 0.1 |
| CN(C)S(=O)(=O)c1cccc(C(=O)OCC(=O)NCc2ccc3c(c2)OCO3)c1 | 0.4 |
| O=C(O)/C=C/c1cccc(NC(=O)Nc2ccc([N+](=O)[O-])cc2)c1 | 1.6 |
| CCOc1cc(/C=C2/C(=O)ON=C2C)cc(Br)c1O | 57.8 |
| Cc1ccsc1/C=N/NC(=O)c1ccccn1 | -0.7 |
| CC1=NN(C(=O)c2ccccc2C)C(O)(c2ccc(Cl)cc2)C1 (stereo not given) | -2.2 |
| O=c1c2c3c(sc2n(CCN2CCOCC2)c(=O)n1Cc1ccco1)CCCCC3 | -0.6 |
| N#CC(C#N)=Cc1ccc(OCC(=O)N2CCOCC2)cc1 | 0.6 |
| CC(=O)NS(=O)(=O)c1ccc(N=c2ssc3c2-c2ccc(C)cc2NC3(C)C)cc1 | 52.5 |

---

A collection of compounds and their measured inhibition
measurement notes: inhibitors of HIV fusion peptide binding, primary screen, biochemical, uHTS, fluorescence dequenching (AID 1986)
conditions: cell-free peptide binding, 30 min, at 20 µM, active compounds read high
Screen size: about 290,000 compounds; about 890 (0.31%) were called active. Only a selection was taken, and actives are over-represented in it overall.
attribute measured: inhibition

| compound | obs value |
| --- | --- |
| COc1cc(N=Cc2c(O)c3ccccc3oc2=O)c(OC)cc1Cl | 73.9% (active) |
| COCCn1c(=NC(=O)CCS(=O)(=O)c2ccccc2)sc2c(OC)ccc(OC)c21 | 1.4% (inactive) |
| Cc1ccc(CNc2ccc3c(c2)OCO3)cc1 | 112% (active) |
| CC(C)(C)n1nnnc1CN1CCN2CCCC2C1 (stereo not drawn) | 1.1% (inactive) |
| CC(C)C(=O)Nc1ccc([N+](=O)[O-])cc1Br | 1.2% (inactive) |
| c1ccc(-c2csc(-c3ccncc3)n2)cc1 | 0.1% (inactive) |
| C=CCN=C1S/C(=C\c2ccc(N(C)C)cc2)C(=O)N1CC=C | 2.1% (inactive) |
| O=C(Nc1cccc(-c2nc3cc(Cl)ccc3o2)c1)C1CCCO1 (stereo not drawn) | 1% (inactive) |
| COc1ccc(-n2c(C)cc(/C=C3\SC(=S)N(Cc4ccco4)C3=O)c2C)cc1 | 38.3% (inactive) |
| CCCCC1=CC2=CC(=O)C(C)(OC(=O)C3CCCC3)C(=O)C2=CO1 (stereo not drawn) | 68.3% (active) |
| CC1=CSC2=NC(=O)/C(=C\c3cccn3-c3ccc([N+](=O)[O-])cc3)C(=N)N12 | 0.3% (inactive) |
| O=C(c1cccnc1)N1CCN(Cc2ccc3c(c2)OCO3)CC1 | 2.7% (inactive) |
| CCc1oc2ccccc2c1C(=O)c1cc(Br)c(O)c(Br)c1 | 57.5% (active) |

---

A collection of molecules and their measured inhibition
measurement notes: inhibitors of HIV fusion peptide binding, primary screen, biochemical, uHTS, fluorescence dequenching (AID 1986)
conditions: cell-free peptide binding, 30 min, at 20 µM, active compounds read high
Hit rate of the full screen: of about 290,000 compounds, about 890 (0.31%) were called active. This excerpt belongs to a sample that is enriched for actives.

| sample smiles | unit symbol | inhibition |
| --- | --- | --- |
| COc1ccc(O)c(/C=C2/SC(=S)N(Cc3ccccc3)C2=O)c1 | % | 68.8 |
| Cc1ccc2c(nc3s/c(=C/c4cccs4)c(=O)n32)c1C | % | -1.1 |
| CCCCCCn1ccc(=N)cc1 | % | -2 |
| Cc1ccc(S(=O)(=O)Nc2ccccc2C(=O)Nc2nc(-c3ccc(F)cc3)cs2)cc1 | % | 65.5 |
